Hi there, I'd appreciate the recorded MIC for every entry that follows.
tested on: E. coli MP-4; experiment: MIC determination by CLSI broth dilution, E. coli MP-4; type: cell-based; conditions: Escherichia coli, MP4, CLSI broth dilution; strain MP-4

Q: Read off the recorded MIC for CO[C@]1(C)C[C@@H](C)CN(C)[C@H](CC2CCN(CC(C)(C)C)CC2)[C@@H](C)OC(=O)C(C)(C)C(=O)[C@H](C)[C@H]1O[C@@H]1O[C@H](C)C[C@H](N(C)C)[C@H]1O [Compound 39]
A: < 4 µg/mL

Q: Read off the recorded MIC for C=C(C)C[C@]1(C)C(=O)OC[C@@H](CC2CCN(CCCCCCC)CC2)N(C)C[C@H](C)C[C@@](C)(OC)[C@H](O[C@@H]2O[C@H](C)C[C@H](N(C)C)[C@H]2O)[C@@H](C)C1=O [Compound 172]
A: 4 to 32 µg/mL

Q: Read off the recorded MIC for CO[C@]1(C)C[C@@H](C)CN(C)[C@@H](CN2CCN(C(=O)C(F)(F)F)CC2)[C@H](C)OC(=O)C(C)(C)C(=O)[C@H](C)[C@H]1O[C@@H]1O[C@H](C)C[C@H](N(C)C)[C@H]1O [Compound 109]
A: 4 to 32 µg/mL

Q: Read off the recorded MIC for CO[C@]1(C)C[C@@H](C)CN(C)[C@@H](C(=O)N2CCN(C(C)C)CC2)[C@H](C)OC(=O)C(C)(C)C(=O)[C@H](C)[C@H]1O[C@@H]1O[C@H](C)C[C@H](N(C)C)[C@H]1O [Compound 91]
A: > 32 µg/mL

Q: Read off the recorded MIC for CO[C@]1(C)C[C@@H](C)CN(C)[C@H](CC2=CCN(CC3CC3)CC2)COC(=O)C(C)(C)C(=O)[C@H](C)[C@H]1O[C@@H]1O[C@H](C)C[C@H](N(C)C)[C@H]1O [Compound 148]
A: < 4 µg/mL

Q: Read off the recorded MIC for CCN1C[C@H](C)C[C@@](C)(OC)[C@H](O[C@@H]2O[C@H](C)C[C@H](N(C)C)[C@H]2O)[C@@H](C)C(=O)C(C)(C)C(=O)OC[C@H]1CCCN1CCC[C@@H]1C [Compound 88]
A: < 4 µg/mL

Q: Read off the recorded MIC for CO[C@]1(C)C[C@@H](C)CN[C@@H](Cc2c[nH]cn2)COC(=O)[C@H](C)C(=O)[C@H](C)[C@H]1O[C@@H]1OC(C)CC(N(C)C)C1O (stereo partly shown) [Compound 205]
A: > 32 µg/mL

Q: Read off the recorded MIC for CCN(C)CCC[C@H]1COC(=O)C(C)(C)C(=O)[C@H](C)[C@@H](O[C@@H]2O[C@H](C)C[C@H](N(C)C)[C@H]2O)[C@](C)(OC)C[C@@H](C)CN1C [Compound 20]
A: < 4 µg/mL

Q: Read off the recorded MIC for CO[C@]1(C)C[C@@H](C)CN(C)[C@@H](CCCN(C)C2CCCC2)COC(=O)C(C)(C)C(=O)[C@H](C)[C@H]1O[C@@H]1O[C@H](C)C[C@H](N(C)C)[C@H]1O [Compound 99]
A: < 4 µg/mL

Q: Read off the recorded MIC for CO[C@]1(C)C[C@@H](C)CN(C)[C@@H](CN(C)C(=O)CN(C)C)COC(=O)C(C)(C)C(=O)[C@H](C)[C@H]1O[C@@H]1O[C@H](C)C[C@H](N(C)C)[C@H]1O [Compound 13]
A: 4 to 32 µg/mL

Q: Read off the recorded MIC for CO[C@]1(C)C[C@@H](C)CN(C)[C@@H](CC2CCN(CC(C)(C)C)CC2)COC(=O)C(C)(C)C(=O)[C@H](C)[C@H]1O[C@@H]1O[C@H](C)C[C@H](N(C)C)[C@H]1O [Compound 66]
A: 4 to 32 µg/mL

Q: Read off the recorded MIC for CCN1C[C@H](C)C[C@@](C)(OC)[C@H](O[C@@H]2O[C@H](C)C[C@H](N(C)C)[C@H]2O)[C@@H](C)C(=O)C(C)(C)C(=O)OC[C@H]1CCCN1CCCCC1 [Compound 140]
A: < 4 µg/mL

Q: Read off the recorded MIC for CO[C@]1(C)C[C@@H](C)CN(C)[C@H](/C=C/CN2CCCC2)COC(=O)C(C)(C)C(=O)[C@H](C)[C@H]1O[C@@H]1O[C@H](C)C[C@H](N(C)C)[C@H]1O [Compound 153]
A: < 4 µg/mL

Q: Read off the recorded MIC for CO[C@]1(C)C[C@@H](C)CN(C)[C@@H](CCCN2CCc3ccccc3C2)COC(=O)C(C)(C)C(=O)[C@H](C)[C@H]1O[C@@H]1O[C@H](C)C[C@H](N(C)C)[C@H]1O [Compound 120]
A: < 4 µg/mL

Q: Read off the recorded MIC for CO[C@]1(C)C[C@@H](C)CN(C)[C@@H](CCCN2CCC(O)CC2)COC(=O)C(C)(C)C(=O)[C@H](C)[C@H]1O[C@@H]1O[C@H](C)C[C@H](N(C)C)[C@H]1O [Compound 92]
A: < 4 µg/mL

Q: Read off the recorded MIC for CCN1C[C@H](C)C[C@@](C)(OC)[C@H](O[C@@H]2O[C@H](C)C[C@H](N(C)C)[C@H]2O)[C@@H](C)C(=O)C(C)(C)C(=O)OC[C@H]1[C@H](O)CCN(C)CC(F)(F)F [Compound 193]
A: 4 to 32 µg/mL

Q: Read off the recorded MIC for CCN1C[C@H](C)C[C@@](C)(OC)[C@H](O[C@@H]2O[C@H](C)C[C@H](N(C)C)[C@H]2O)[C@@H](C)C(=O)C(C)(C)C(=O)OC[C@H]1[C@H](O)CCN(C1CC1)C1Cc2ccccc2C1 [Compound 226]
A: < 4 µg/mL

Q: Read off the recorded MIC for CO[C@]1(C)C[C@@H](C)CN(C)[C@H]([C@@H](O)C2CCN(C(C)C)CC2)COC(=O)C(C)(C)C(=O)[C@H](C)[C@H]1O[C@@H]1O[C@H](C)C[C@H](N(C)C)[C@H]1O [Compound 27]
A: 4 to 32 µg/mL

Q: Read off the recorded MIC for CO[C@]1(C)C[C@@H](C)CN(CC(C)C)[C@@H](CCCN2CCc3ccccc3C2)COC(=O)C(C)(C)C(=O)[C@H](C)[C@H]1O[C@@H]1O[C@H](C)C[C@H](N(C)C)[C@H]1O [Compound 141]
A: < 4 µg/mL
